- testDescription: Examination of solubility, visually and by microscopy
- Format: physicochemical
- experimentalSetup: DMEM medium containing 10% fetal bovine serum, plasma or biological fluid; concentration 100 μg/ml
property: solubility

-- ask // query solubility value for entry `COC(=O)[C@H](CC(C)C)NC(=O)[C@H](CCSC)NC(=O)[C@@H](C[C@@H](O)[C@H](CC(C)C)NC(=O)OC(C)(C)C)C(C)C`
-- reply < 100 µg/mL

* * *

- testDescription: Examination of solubility, visually and by microscopy
- Type: physicochemical
- experimentalSetup: phosphate buffer, pH 7, aqueous buffer, Phosphate buffer (pH 7.0); concentration 1 μg/ml
property: solubility

-- ask // query solubility value for entry `COC(=O)[C@H](CC(C)C)NC(=O)[C@H](CCSC)NC(=O)[C@@H](C[C@@H](O)[C@H](CC(C)C)NC(=O)OC(C)(C)C)C(C)C`
-- reply 0.01 to 1 µg/mL
